Reported values of hERG current change (%, negative = inhibition) at 1uM for individual entries
Molecular target: human ether-à-go-go-related gene (hERG) potassium channel (human, UniProt Q12809)
Sequence (Q12809 whole entry, looked up): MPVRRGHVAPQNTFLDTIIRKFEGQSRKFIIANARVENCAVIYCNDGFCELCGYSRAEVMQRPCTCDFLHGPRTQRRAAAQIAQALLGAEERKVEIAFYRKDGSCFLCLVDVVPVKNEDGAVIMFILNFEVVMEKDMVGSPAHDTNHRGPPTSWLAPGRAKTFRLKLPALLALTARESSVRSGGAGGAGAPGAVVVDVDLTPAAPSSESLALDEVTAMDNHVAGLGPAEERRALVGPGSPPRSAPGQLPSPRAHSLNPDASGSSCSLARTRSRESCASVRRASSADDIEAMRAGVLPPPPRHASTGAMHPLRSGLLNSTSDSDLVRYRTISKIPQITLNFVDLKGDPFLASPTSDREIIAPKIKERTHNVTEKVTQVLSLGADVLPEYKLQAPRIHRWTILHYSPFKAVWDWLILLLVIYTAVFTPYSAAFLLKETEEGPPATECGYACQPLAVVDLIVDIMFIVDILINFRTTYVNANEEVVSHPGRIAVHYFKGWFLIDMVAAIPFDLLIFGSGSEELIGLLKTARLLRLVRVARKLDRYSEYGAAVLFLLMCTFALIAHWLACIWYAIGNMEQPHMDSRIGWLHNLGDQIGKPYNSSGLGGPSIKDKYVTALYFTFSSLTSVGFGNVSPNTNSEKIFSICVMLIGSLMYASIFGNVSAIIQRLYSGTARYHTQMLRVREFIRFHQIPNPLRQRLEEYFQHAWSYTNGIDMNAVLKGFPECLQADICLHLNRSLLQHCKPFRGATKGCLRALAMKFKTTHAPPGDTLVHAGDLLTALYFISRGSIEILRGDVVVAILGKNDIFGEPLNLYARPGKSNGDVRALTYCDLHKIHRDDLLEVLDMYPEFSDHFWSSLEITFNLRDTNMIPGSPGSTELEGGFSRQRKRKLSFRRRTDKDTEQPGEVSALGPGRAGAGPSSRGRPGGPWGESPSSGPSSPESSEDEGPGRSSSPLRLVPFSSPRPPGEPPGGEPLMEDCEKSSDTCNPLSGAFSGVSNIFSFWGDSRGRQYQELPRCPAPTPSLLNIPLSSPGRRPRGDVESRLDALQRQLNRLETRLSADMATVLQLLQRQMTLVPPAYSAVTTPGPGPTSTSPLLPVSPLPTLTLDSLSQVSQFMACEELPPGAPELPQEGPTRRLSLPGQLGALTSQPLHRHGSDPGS
Test: primary screen, population patch clamp on CHO cells stably expressing hERG; higher = less effect of the substance
The whole screen tested about 310,000 compounds, of which about 2,200 (0.71%) showed an effect of 50% or more. Effects have a minus sign here. The full list was thinned out, with strong results kept by preference.
Write the value in % as a bare number.

molecule	reading
C/C(=N\NC(=O)c1ccc(Cl)cc1)c1ccccn1	8.17
CC(C)C(=O)C1=Cc2cc([N+](=O)[O-])ccc2OC1N1CCOCC1 (centres unmarked)	9.39
Br.Cc1ccc(C)c(C(=O)CN2C3=NCCCN3c3ccccc32)c1	-43
O=c1cc(O)c2c(=O)n(C3CCCCC3)c3ccccc3c2o1	10.4
CC(C1CC2CCC1C2)n1c(COc2ccccc2F)nnc1SCC(N)=O (centres unmarked)	-1.9
CCN(CC)c1ccc(/C=N/NC(=S)NC)c(O)c1	4.81

INPUT: For "CNc1nc2cc([N+](=O)[O-])c([N+](=O)[O-])cc2nc1NC" , what is its reported hERG current change (%, negative = inhibition) at 1uM?
OUTPUT: -3.16

INPUT: For "Br.O=C(CN1C2=NCCN2c2ccccc21)c1ccc(Br)cc1" , what is its reported hERG current change (%, negative = inhibition) at 1uM?
OUTPUT: -28.4

---

Target: human ether-à-go-go-related gene (hERG) potassium channel (human, UniProt Q12809)
Experiment: primary screen, population patch clamp on CHO cells stably expressing hERG; higher = less effect of the substance
Among all 310,000 compounds or so, about 2,200 (0.71%) showed an effect of 50% or more. The effect is printed as a negative number. The list comes from a sample in which strong results are over-represented; it also holds close analogues and randomly drawn compounds.
Reported values of hERG current change (%, negative = inhibition) at 1uM for individual entries
Write the value in % as a bare number.

compound	reading
Cc1ccccc1CC1(CO)CCCN(C(=O)c2ccccc2N(C)C)C1 (centres unmarked)	10.9
C#CCn1c(=NC(=O)c2ccc(Cl)s2)sc2cccc(OC)c21	14.9
Cc1cc(C)c2nc(N3CCC(C(=O)NCc4ccccn4)CC3)sc2c1	9.75
OC[C@H]1O[C@@H](Oc2ccc3cc(Br)ccc3c2)[C@H](O)[C@@H](O)[C@H]1O	4.75
COc1cc2c(cc1OC)C(c1ccc([N+](=O)[O-])cc1)N(C(C)=O)CC2 (centres unmarked)	5.11

INPUT: For "CCC1(CC)C(=O)NC(=O)NC1=NCCc1c[nH]c2ccccc12" , what is its reported hERG current change (%, negative = inhibition) at 1uM?
OUTPUT: 21.2

INPUT: For "O=C(N/N=C/c1ccsc1)c1ccccn1" , what is its reported hERG current change (%, negative = inhibition) at 1uM?
OUTPUT: 16.7

INPUT: For "CCOC(=O)c1cnc(-n2nc(C)cc2C)nc1NNc1nc(-c2ccccc2)cc(-c2ccccc2)n1" , what is its reported hERG current change (%, negative = inhibition) at 1uM?
OUTPUT: -1.53

INPUT: For "Cc1cc(=O)n2nc(N3CCC(C(=O)NCc4cccnc4)CC3)sc2n1" , what is its reported hERG current change (%, negative = inhibition) at 1uM?
OUTPUT: 6.87

INPUT: For "C/C(=N/NC(=O)c1ccc(C)nc1)c1ccc2c(c1)CCCC2" , what is its reported hERG current change (%, negative = inhibition) at 1uM?
OUTPUT: -4.02

INPUT: For Cc1ccccc1CC1(CO)CCCN(C(=O)c2cc(Cl)ccc2F)C1 (centres unmarked) , what is its reported hERG current change (%, negative = inhibition) at 1uM?
OUTPUT: 14.5

INPUT: For "Cc1cc(C)c2nc(N3CCC(C(=O)NCc4cccnc4)CC3)sc2c1" , what is its reported hERG current change (%, negative = inhibition) at 1uM?
OUTPUT: -50.6

INPUT: For "Cc1cccc(-c2c3c(=O)n(C)c(=O)n(C)c3cn2-c2ccc(O)cc2)c1" , what is its reported hERG current change (%, negative = inhibition) at 1uM?
OUTPUT: 13.8

INPUT: For "Cc1[nH]c2ccccc2c1/C=C/c1nc2ccccc2c(=O)n1-c1ccc([N+](=O)[O-])cc1" , what is its reported hERG current change (%, negative = inhibition) at 1uM?
OUTPUT: -1.09

INPUT: For "COc1ccc(-n2nnnc2SCC(=O)Nc2ccccc2N2CCOCC2)cc1" , what is its reported hERG current change (%, negative = inhibition) at 1uM?
OUTPUT: -6.62

INPUT: For "CC(=O)N1CCN(c2ccnc3cc(Cl)ccc23)CC1" , what is its reported hERG current change (%, negative = inhibition) at 1uM?
OUTPUT: -23.2

INPUT: For "O=C(CNC(=O)C12CC3CC(CC(C3)C1)C2)NC1=NCCS1" , what is its reported hERG current change (%, negative = inhibition) at 1uM?
OUTPUT: 12.3

---

Molecular target: human ether-à-go-go-related gene (hERG) potassium channel (human, UniProt Q12809)
Experiment: primary screen, population patch clamp on CHO cells stably expressing hERG; higher = less effect of the substance
From the text: Briefly, Chinese hamster ovary (CHO) cells stably expressing the hERG channel were dislodged from tissue culture flasks and dispensed into PPC plates. […] Small molecule effects on hERG current density were quantified by […].
About 2,200 (0.71%) of roughly 310,000 compounds showed an effect of 50% or more. The effect is printed as a negative number. This is one part of a sample in which strong results are shown more often than they occur.
Label Yes for high-side hERG current change (%, negative = inhibition) at 1uM (at or above -20%) and No for low-side hERG current change (%, negative = inhibition) at 1uM (below it).

Past entries and their recorded results:
smiles representation	label class
O=C(c1cccn2c(=O)c3ccccc3nc12)N1CCN(Cc2ccc3c(c2)OCO3)CC1	No
COc1ccc2c(c1)N1CCN=C1N2C.Cl	Yes
COc1cccc(NC(=O)CSc2nnc(-c3ccoc3C)n2-c2ccccc2)c1	Yes
Cc1ccc(C)c(NC(=S)NCCSc2ccc(Cl)cc2)c1	Yes
CCOc1ccc(-n2c(SCC(=O)Nc3nccs3)nnc2-c2ccoc2C)cc1	No

INPUT: Is it the case that "CC(C)(C)CC(=O)OCC(=O)Nc1cc(C(C)(C)C)nn1-c1ccccc1" has hERG current change (%, negative = inhibition) at 1uM reaching or exceeding -20%?
OUTPUT: Yes

INPUT: Is it the case that "O=C(c1ccc2nc3ccccc3c(=O)n2c1)N1CCN(Cc2ccc3c(c2)OCO3)CC1" has hERG current change (%, negative = inhibition) at 1uM reaching or exceeding -20%?
OUTPUT: Yes

---

Molecular target: human ether-à-go-go-related gene (hERG) potassium channel (human, UniProt Q12809)
Assay: primary screen, population patch clamp on CHO cells stably expressing hERG; higher = less effect of the substance
Among all 310,000 compounds or so, about 2,200 (0.71%) showed an effect of 50% or more. The effect is printed as a negative number. The entries come from a sample that favours strong results as a whole.
Reported values of hERG current change (%, negative = inhibition) at 1uM for individual entries
Write the value in % as a bare number.

Use these answered entries as a reference point.
smiles representation	system under test	unit	reading
O=c1cc(NCc2ccco2)c2ccccc2o1	human ether-à-go-go-related gene (hERG) potassium channel (human, UniProt Q12809)	%	11.6
S=C(Nc1ccccc1)Nc1ccc(Br)cc1	human ether-à-go-go-related gene (hERG) potassium channel (human, UniProt Q12809)	%	14.5
Clc1ncc(CSc2ccccc2)s1	human ether-à-go-go-related gene (hERG) potassium channel (human, UniProt Q12809)	%	5.7
Cc1cc(N2CCC(C(=O)NCC3CC3)CC2)nc(-c2ccccc2)n1	human ether-à-go-go-related gene (hERG) potassium channel (human, UniProt Q12809)	%	-53

Then there is this compound:
INPUT: Any idea what hERG current change (%, negative = inhibition) at 1uM came out for "O=C(CN1CCN(Cc2ccccc2)CC1)Nc1ccc(Br)cc1" on human ether-à-go-go-related gene (hERG) potassium channel (human, UniProt Q12809)?
OUTPUT: -48.3

---

Biological target: human ether-à-go-go-related gene (hERG) potassium channel (human, UniProt Q12809)
Assay: primary screen, population patch clamp on CHO cells stably expressing hERG; higher = less effect of the substance
The campaign covered roughly 310,000 compounds. About 2,200 (0.71%) showed an effect of 50% or more. The effect is printed as a negative number. The sample holds strong results, similar compounds and a random draw of the others, so the mix is not that of the screen.
measure: hERG current change (%, negative = inhibition) at 1uM (%)
Write the value in % as a bare number.

Use these answered entries as a reference point.
compound	unit	reading
CC1CN(CC(O)COc2ccc(C#N)cc2)CCN1CC(O)COc1ccc(C#N)cc1 (centres unmarked)	%	-86.2
Cc1ccc(C(=O)COC(=O)CCC(=O)Nc2ccccc2Cl)cc1[N+](=O)[O-]	%	8.32
OC(COc1ccc(OCC(O)CN2CCCCC2)cc1)CN1CCCCC1 (centres unmarked)	%	18.1
N#Cc1ccc(-c2ccc(OCC(O)CN3CCCCC3)cc2)cc1 (centres unmarked)	%	-52.1
CCCn1c(N2CCN(C(=O)/C=C/C(=O)O)CC2)nc2ccccc21	%	14.7
C[N+](C)(C)CCN(Cc1ccc(Cl)cc1)c1ccccn1.[I-]	%	6.09
OC1CCCN(CC(O)COc2ccc(-c3ccccc3)cc2)C1 (centres unmarked)	%	-0.151

Then there is this compound:
INPUT: For "CCn1c(N2CCN(Cc3ccc([N+](=O)[O-])cc3)CC2)nc2ccccc21.Cl" , what is its reported hERG current change (%, negative = inhibition) at 1uM?
OUTPUT: -81.2
